Molecular target: T1, EsCas13d, nuclease-dead (Eubacterium siraeum, UniProt B0MS50, R295A;H300A;R849A;H854A)
T1 sequence: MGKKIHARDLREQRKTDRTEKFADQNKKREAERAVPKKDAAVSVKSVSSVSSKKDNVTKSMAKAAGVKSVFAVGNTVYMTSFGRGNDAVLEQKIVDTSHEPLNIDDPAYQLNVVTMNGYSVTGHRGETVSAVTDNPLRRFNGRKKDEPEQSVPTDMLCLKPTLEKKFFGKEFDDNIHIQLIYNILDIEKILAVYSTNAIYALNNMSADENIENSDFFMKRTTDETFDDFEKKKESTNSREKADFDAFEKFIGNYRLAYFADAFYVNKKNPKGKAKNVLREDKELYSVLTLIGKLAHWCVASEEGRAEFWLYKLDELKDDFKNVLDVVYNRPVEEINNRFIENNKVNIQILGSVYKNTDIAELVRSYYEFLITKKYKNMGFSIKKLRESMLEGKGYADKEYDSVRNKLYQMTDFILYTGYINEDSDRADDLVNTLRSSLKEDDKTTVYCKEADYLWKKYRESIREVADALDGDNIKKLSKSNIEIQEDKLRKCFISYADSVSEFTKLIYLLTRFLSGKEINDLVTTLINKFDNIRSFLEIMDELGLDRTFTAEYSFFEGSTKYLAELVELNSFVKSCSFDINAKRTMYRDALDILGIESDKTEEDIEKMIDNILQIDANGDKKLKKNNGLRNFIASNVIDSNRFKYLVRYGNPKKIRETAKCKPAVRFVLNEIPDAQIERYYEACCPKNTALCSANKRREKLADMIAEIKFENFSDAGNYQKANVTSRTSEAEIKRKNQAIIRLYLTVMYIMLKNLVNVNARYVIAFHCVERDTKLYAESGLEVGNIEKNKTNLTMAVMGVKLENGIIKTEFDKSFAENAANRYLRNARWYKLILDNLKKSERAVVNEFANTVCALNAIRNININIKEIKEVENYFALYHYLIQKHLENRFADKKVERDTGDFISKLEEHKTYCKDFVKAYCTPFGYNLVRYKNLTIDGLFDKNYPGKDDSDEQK
Experiment: crRNA (strand 1, pre-loaded); Mg2+; 40 mM Tris-HCl pH 7.5, 150 mM NaCl, 6 mM MgCl2, 1 mM DTT, 0.1% Tween-20, 0.2 mg/ml BSA; 25 C; 10 min per concentration, then washed
Conditions: tags: His6-TwinStrep-SUMO cleaved; N-terminal SNAP kept (SNAP-Surface 488); label: 3' end held by stalled T7 RNA polymerase
ASSAY_ENDPOINT: Kd
Please make sure the unit comes right after the number.

Below: 3 binders and their reported Kd.
BINDER	ASSAY_ENDPOINT	OBSERVED_VALUE
target 2 MT 5'PFS UUA 3'PFS UCG (mixed) RNA 1: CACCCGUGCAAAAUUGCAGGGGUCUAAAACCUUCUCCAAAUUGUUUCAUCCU RNA 2: GGGAAUGGAUCCACAUCUACGAAUUCUUAAGGAUGAAACAAUUUGGAGAAGUCGAGAUCGGAAGAGCACACGU	Kd	25 nM
target 1 insU 3' of 15,insG 3' of 8 (mixed) RNA 1: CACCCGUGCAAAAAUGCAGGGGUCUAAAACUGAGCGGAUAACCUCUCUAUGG RNA 2: GGGAAUGGAUCCACAUCUACGAAUUCGUACCAUAGAGUAGGUUAUGCCGCUCACCGAGAUCGGAAGAGCACACGU	Kd	18.3 nM
target 2 MT 5'PFS ACG 3'PFS UCU (mixed) RNA 1: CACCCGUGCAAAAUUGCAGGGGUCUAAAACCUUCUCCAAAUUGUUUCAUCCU RNA 2: GGGAAUGGAUCCACAUCUACGAAUUCACGAGGAUGAAACAAUUUGGAGAAGUCUAGAUCGGAAGAGCACACGU	Kd	23 nM

Query: Request the reported Kd associated with target 2 MT 5'PFS UCU 3'PFS UGA (mixed) RNA 1: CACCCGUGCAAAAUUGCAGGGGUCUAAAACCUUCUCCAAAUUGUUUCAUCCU RNA 2: GGGAAUGGAUCCACAUCUACGAAUUCUCUAGGAUGAAACAAUUUGGAGAAGUGAAGAUCGGAAGAGCACACGU
Reply: 14.5 nM
